Source: ChEMBL document CHEMBL4196152

In this section, each of the molecules is paired with its reported inhibition.
target: Glutamate NMDA receptor; Grin1/Grin2a (Rattus norvegicus) (UniProt P35439+Q00959); experiment: Inhibition of rat GluN1a/GluN2A expressed in Xenopus laevis oocytes assessed as inhibition of L-Glu and Gly-evoked currents at 100 nM under dark condition at -80 mV membrane potential by two electrode voltage-clamp assay; format: cell-based

1. N=C(N)NCCC[C@H](N)C(=O)NCCCNCCCCCCCCCNC(=O)c1cccc(/N=N/c2ccccc2)c1 | 70 to 80%

Q: Given CCN(CC)c1ccc(/N=N/c2ccc(C(=O)N[C@@H](CC(N)=O)C(=O)NCCCCCCCCNCCCCNC(=O)[C@@H](N)CCCNC(=N)N)cc2)cc1 , report its inhibition on Glutamate NMDA receptor; Grin1/Grin2a (Rattus norvegicus) (UniProt P35439+Q00959).
Result: < 5%

Q: Give reported inhibition for N=C(N)NCCC[C@H](N)C(=O)NCCCCCCCCNCCCCNC(=O)[C@H](CC(N)=O)NC(=O)c1ccc(/N=N/c2ccccc2)cc1 (Glutamate NMDA receptor; Grin1/Grin2a (Rattus norvegicus) (UniProt P35439+Q00959))
Result: 70 to 80%

Q: Please report the measured inhibition for N=C(N)NCCC[C@H](N)C(=O)NCCCCCCCCNCCCCNC(=O)[C@H](CC(N)=O)NC(=O)c1cccc(/N=N/c2ccccc2)c1 tested on Glutamate NMDA receptor; Grin1/Grin2a (Rattus norvegicus) (UniProt P35439+Q00959).
Result: 70 to 80%
